# test system: human FPR1 (Homo sapiens, UniProt P21462)
# Sequence (P21462 1-350): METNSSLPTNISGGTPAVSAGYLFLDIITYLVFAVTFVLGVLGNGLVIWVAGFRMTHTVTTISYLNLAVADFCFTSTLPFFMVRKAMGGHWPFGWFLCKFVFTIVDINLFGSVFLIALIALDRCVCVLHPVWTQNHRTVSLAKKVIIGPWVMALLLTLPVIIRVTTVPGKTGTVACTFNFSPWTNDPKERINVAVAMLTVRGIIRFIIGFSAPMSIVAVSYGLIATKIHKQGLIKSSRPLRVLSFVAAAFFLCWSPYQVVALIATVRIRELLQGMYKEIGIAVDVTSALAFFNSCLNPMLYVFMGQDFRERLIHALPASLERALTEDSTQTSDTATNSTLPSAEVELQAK
# assay explanation: FPR1 cyclic adenosine monophosphate (cAMP) assay
# condition details: CHO cells overexpressing human FPR1; inhibition of forskolin-stimulated cAMP production; read-out: hFPR1 cAMP EC50
pEC50: −log10 of the molar value.
property measured: pEC50

Previously resolved entries follow.
[[record]]
chem_smiles = "COc1cc(F)c([C@@H]2CNC(=O)[C@H]2NC(=O)NC2(c3ccc4ncccc4n3)CC2)c(F)c1"
readout_number = 6.00

[[record]]
chem_smiles = "COc1cc(F)c([C@@H]2CNC(=O)[C@H]2NC(=O)NC2(c3ccc(C)c(Cl)c3)CC2)c(F)c1"
readout_number = 6.70


1. COc1cc(F)c([C@@H]2CNC(=O)[C@H]2NC(=O)NC2(c3ccc(Cl)c(C)n3)CC2)c(F)c1
2. CCCN1C[C@@H](c2c(F)cc(OC)cc2F)[C@H](NC(=O)NC2(c3ccc4ccccc4n3)CC2)C1=O
3. COc1cc(F)c([C@@H]2CN(CCO)C(=O)[C@H]2NC(=O)NC2(c3ccc4ccccc4n3)CC2)c(F)c1
4. COc1cc(F)c([C@@H]2CNC(=O)[C@H]2NC(=O)NC2(c3ccc4cc(OC)ccc4c3)CC2)c(F)c1
5. COc1cc(F)c([C@@H]2CN(CC(F)(F)F)C(=O)[C@H]2NC(=O)NC2(c3cccc(C)n3)CC2)c(F)c1
Query: Could you please sort these 5 entries by pEC50 from high to low? Hello, could you send the labels back in the order asked? Thank you.
Result: 2, 5, 1, 3, 4
